The reported numbers originate from the supplement of paper PMC9170038.

Test system: MS2 coat protein
Procedure text: apparent KD of MS2 coat protein; designed switch direction (-1 OFF switch, 1 ON switch): -1; higher = weaker reporter binding
Measurement context: input ligand: none
Field: apparent KD of MS2 coat protein. Provide a value for each of the sequences that follow.
Answers are plain numbers, in µM.

Chain: AACGGUGGGUAGGAUAUCCGGUUCUAGUUGCCAGGAGAAGGGCCCACAUGAGGAUCACCCAUGUGGGUGGGCUC [Maesri] (Eterna round: R96, puzzle: Exclusion 6)
apparent KD of MS2 coat protein / µM: 0.0813

Chain: UCUCGCUGGCGAGGAUAUCCUGUGCGGUUCCGGCUCGUGUCUGUUACAUGAGGAUCACCCAUGUGGGAGAAGGUGUCUGUGGCC [Design 96] (Eterna round: R96, puzzle: Exclusion NG 2)
apparent KD of MS2 coat protein / µM: 0.0188

Chain: CCUGUGACGCAGGAUAUCGAGCACAAUGCAUGUUGAGAAGGGCGUACAUGAGGAUCACCCAUGUCUCACGUAGG [Eternabot (L1) Solution 53] (Eterna round: R97, puzzle: Exclusion 6)
apparent KD of MS2 coat protein / µM: 0.316

Chain: UUGAUGUGAGGAUAUAUUUUUUUUUUUCUUUAUGUUUUAUAACUUGAGGAUCACCCAAGUAGAAGGCGCUACGU [JR_Ex2_Sub064] (Eterna round: R97, puzzle: Exclusion 2)
apparent KD of MS2 coat protein / µM: 0.0305

Next, consider the following sequence.
Notebook: pull reported apparent KD of MS2 coat protein for MS2 coat protein, entry UAAAACGUAGGAUAUGCGGAAAAUAACUUGAGGAUCACCCAAGUGUCCGAGAGGCUAAAUGCAGAAGGACGAGAUC [Edxedi] (Eterna round: R97, puzzle: Exclusion 5)
0.105

----------
Tested on: MS2 coat protein
Procedure text: apparent KD of MS2 coat protein; designed switch direction (-1 OFF switch, 1 ON switch): -1; higher = weaker reporter binding
Measurement context: input ligand: microRNA oligo, concentration not stated
// bucketize apparent KD of MS2 coat protein: label 0: < 20 nM; label 1: ≥ 20 nM and < 60 nM; label 2: ≥ 60 nM

See these solved cases before continuing.
Chain: GUCAGCUCGUGAGGAUAUACAUGAGGAUCACCCAUGUGAUCAAUAGCAGCUUCGGCUGCAAUAAUGUAGAAGGCACGAGCUGAC [ENG2/8-C] (Eterna round: R96, puzzle: Exclusion NG 2)
Discrete label: label 2

Chain: CUACUCGUUGUGAGGAUAUCGUUUUCGUCACGGAUCGAGAAGGCACAUGAGGAUCACCCAUGUUUGAUGUGGAU [JR_BMOE4_Sub091] (Eterna round: R96, puzzle: Brourd's mod of Exclusion 4)
Discrete label: label 1

Chain: AAGUAUCAUGUAGGAUAUGCUAACCGAACGUUAGCAGAAGGACAUGAGGAUCACCCAUGUUCUCAUCUGUAAGAACAGAUGUCU [Ex NG1 #6] (Eterna round: R96, puzzle: Exclusion NG 1)
Discrete label: label 0

Chain: UUCUUUAUACGAGGAUAUCAUACAUGAGGAUCACCCAUGUGGCUGGGUCUGUUUUUAUAUAUUAUUGAGAAGGCGUUUUUCUUU [JR_ExcNG2_Sub074] (Eterna round: R96, puzzle: Exclusion NG 2)
Discrete label: label 1

Chain: AGCGAAAAGACAGGAUAUGAGAAUAGAUAGAGCUCAGAAGGGUCACAUGAGGAUCACCCAUGUAAAGUCUUGAGGCUGCGUGGU [Prohibition 11 - Jieux - Exclusion NG 1] (Eterna round: R96, puzzle: Exclusion NG 1)
Discrete label: label 1

Chain: UAUUAACAUGUAGGAUAUCUGCACGUUUAGUGCAGAGAAGGACAUGAGGAUCACCCAUGUAGAUCAUAAUAAUUUAAUUUAAUU [ENG1/6-D2] (Eterna round: R96, puzzle: Exclusion NG 1)
Discrete label: label 2

Chain: AAACAAAAGGCAGGAUAUCCUCGUCAACACCACAAGUCCACUCGGACAUGAGGAUCACCCAUGUAGGAGAAGGGCCAGAAAUAC [Bevearla] (Eterna round: R96, puzzle: Exclusion NG 2)
Discrete label: label 0

Chain: GUAUGUGAGAGAGGAUAUCGUGUACAAAGUACACGAGAAGGCUUCACAUGAGGAUCACCCAUGUACCGAGGUGAAACACCUUGA [Omei Exc(NG)1 Bv9] (Eterna round: R96, puzzle: Exclusion NG 1)
Discrete label: label 2

Chain: GGGCCUGGUGUAGGAUAUCGUGGGCGGUGUCGGCGAGAAGGACAUGAGGAUCACCCAUGUCCGGGCUCGGGUUCCCGGGCUUGG [second try -37.9 kcal and 14% A] (Eterna round: R96, puzzle: Exclusion NG 1)
Discrete label: label 0

Chain: CCUUAUUAUCGAGGAUAUCCUAUUGAAAUUCUGGGAGAAGGCGGACUCAACAUGAGGAUCACCCAUGUGGGACGGAUGCUAGGA [salish99_exng1_r04_603] (Eterna round: R96, puzzle: Exclusion NG 1)
Discrete label: label 0

Entry AGUAAUUCAAGAGGAUAUCACAUGAGGAUCACCCAUGUAUAGCGCGCUACGCUAGUCCUCGUAUUUGAGAAGGUUUGAUAAAUG [JL ViennaUCT Quve mod 1] (Eterna round: R96, puzzle: Exclusion NG 2) belongs to which category?
label 0

Using the reported apparent KD of MS2 coat protein, which band applies to UUAUUACAAGCAAGAUCCCACAUGAGGAUCACCCAUGUGCUCGUCUUAUAAGGUACUGUGACGAAAGUCACGGUACC [Sensor 3, v1 - 100] (Eterna round: R96, puzzle: Sensor v3, turn-off variant 1) ?
label 2

Which bin, given its apparent KD of MS2 coat protein, does AACCUGAGGCAAAGCUUUAGGUGUACAUGAGGAUCACCCAUGUAGGAUAUGGUAGGCUUUGCUUACCAGAAGGACAUUAUGAUG [Mat - Exclusion NG 3 - Mod of JL - D50] (Eterna round: R96, puzzle: Exclusion NG 3) occupy?
label 1

Could you tell me which band ACAUGAGGAUCACCCAUGUAAUGAAGGGUACUAUAUUAAACGUAGGAUAUCGAUGUAAGUUUGUACGAGAAGGACGAUUGCCUU [JR_ExcNG3_Sub052] (Eterna round: R96, puzzle: Exclusion NG 3) belongs to?
label 1
